Reference source: paper PMC5349851

Catalogue of binding signal values
Target: JUNB;BATF3 (Homo sapiens;Homo sapiens, UniProt P17275;Q9NR55 259-332;26-99, |)
Sequence 1: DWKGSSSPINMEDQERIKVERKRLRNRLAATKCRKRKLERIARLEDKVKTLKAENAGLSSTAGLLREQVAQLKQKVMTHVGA
Sequence 2: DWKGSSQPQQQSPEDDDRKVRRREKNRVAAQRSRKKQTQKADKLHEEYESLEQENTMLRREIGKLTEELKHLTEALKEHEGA
Assay: SELEX-seq (CSI, HT-SELEX, round 3); SELEX-seq: 1x PBS (10 mM phosphate, 137 mM NaCl, 2.7 mM KCl) pH 7.6, 2.5 mM DTT, 50 ng/ul poly dI-dC, 0.1% BSA, 50 nM biotinylated bZIP (1:3 with partner for heterodimers), 100 nM library, room temperature, 1 h, 3 rounds; high values mean tight binding
Conditions: protein: recombinant;recombinant; copies: 1;1; dsDNA, one strand shown
OBSERVATION_TYPE: binding signal

{"columns": ["RESIDUE_STRING", "TEST_TARGET", "RESULT"],
 "data": [
  ["CCTGACGTCA", "JUNB;BATF3 (Homo sapiens;Homo sapiens, UniProt P17275;Q9NR55 259-332;26-99, |)", "0.0239 relative CSI intensity (max = 1)"],
  ["ATGACGTAAT", "JUNB;BATF3 (Homo sapiens;Homo sapiens, UniProt P17275;Q9NR55 259-332;26-99, |)", "0.0919 relative CSI intensity (max = 1)"],
  ["ATGACGGAAT", "JUNB;BATF3 (Homo sapiens;Homo sapiens, UniProt P17275;Q9NR55 259-332;26-99, |)", "0.00175 relative CSI intensity (max = 1)"],
  ["ATGACGCAAT", "JUNB;BATF3 (Homo sapiens;Homo sapiens, UniProt P17275;Q9NR55 259-332;26-99, |)", "0.026 relative CSI intensity (max = 1)"]
]}

---

Target: CEBPE;CEBPE (Homo sapiens;Homo sapiens, UniProt Q15744;Q15744 195-267;195-267, |)
Sequence 1: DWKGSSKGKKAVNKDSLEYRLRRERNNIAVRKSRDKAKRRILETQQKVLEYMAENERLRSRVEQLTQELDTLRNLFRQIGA
Sequence 2: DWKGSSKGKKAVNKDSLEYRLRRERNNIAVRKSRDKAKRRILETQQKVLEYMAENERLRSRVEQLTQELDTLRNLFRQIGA
Assay: SELEX-seq (CSI, HT-SELEX, round 3); SELEX-seq: 1x PBS (10 mM phosphate, 137 mM NaCl, 2.7 mM KCl) pH 7.6, 2.5 mM DTT, 50 ng/ul poly dI-dC, 0.1% BSA, 50 nM biotinylated bZIP (1:3 with partner for heterodimers), 100 nM library, room temperature, 1 h, 3 rounds; high values mean tight binding
Conditions: protein: recombinant;recombinant; copies: 1;1; dsDNA, one strand shown
Item-by-item account of binding signal
OBSERVATION_TYPE: binding signal

{"columns": ["RESIDUE_STRING", "RESULT"],
 "data": [
  ["ATGATGCAAT", "0.139 relative CSI intensity (max = 1)"],
  ["CCTGACGTCA", "0.00701 relative CSI intensity (max = 1)"],
  ["ATGACGTCAT", "0.0521 relative CSI intensity (max = 1)"],
  ["ATGACGTAAT", "0.0888 relative CSI intensity (max = 1)"]
]}
